# system.tested: Ole1 (Saccharomyces cerevisiae)
# Construct: expressed in transfected cells; host or cells: S. cerevisiae ole1Δ strain (W303 pdr1Δ pdr3Δ background), plasmid pRS316 with TDH3 promoter and CYC1 terminator
# Sequence (P21147 whole entry): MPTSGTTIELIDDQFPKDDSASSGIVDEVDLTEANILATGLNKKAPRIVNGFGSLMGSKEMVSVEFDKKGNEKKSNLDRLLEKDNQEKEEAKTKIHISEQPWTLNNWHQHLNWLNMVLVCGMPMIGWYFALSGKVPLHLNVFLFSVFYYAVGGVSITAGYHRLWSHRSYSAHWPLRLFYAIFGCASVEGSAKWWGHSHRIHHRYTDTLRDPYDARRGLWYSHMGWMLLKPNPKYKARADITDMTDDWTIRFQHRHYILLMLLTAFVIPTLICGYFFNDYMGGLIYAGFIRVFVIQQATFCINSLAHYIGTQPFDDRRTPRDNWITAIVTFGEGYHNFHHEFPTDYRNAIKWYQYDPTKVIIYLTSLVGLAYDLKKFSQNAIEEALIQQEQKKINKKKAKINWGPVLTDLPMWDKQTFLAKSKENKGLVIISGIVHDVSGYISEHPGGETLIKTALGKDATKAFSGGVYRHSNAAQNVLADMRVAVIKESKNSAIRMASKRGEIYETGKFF
# assay.protocol: Growth inhibition of yeast strain expressing Ole1 as sole desaturase
# Type: cell-based
# condition: yeast strain expressing Ole1 as sole desaturase
# Method: Strain oleΔ (yeast ole1 deletion mutant) was constructed by deleting OLE1 with NAT-MX6 in BY4741, amplifying the deletion cassette from the genomic DNA of the resulting strain with primers flanking the ORF by 1000 bp upstream and downstream, transforming the resulting deletion cassette into W303 pdr1Δ pdr3Δ, and plating transformants on YPD media containing G418 (200 μg/mL) and nourseothricin ([…]) with 0.01% TWEEN®-20 and 0.5 mM oleic and palmitoleic acids. […]

compound: COC(=O)N1CCC(c2nc(-c3ccc4c(C)nn(C)c4c3)no2)CC1
system.tested: Ole1 (Saccharomyces cerevisiae)
OLE1 % Max Inhibition / %: 78.7
--
compound: Cc1nn(C)c2cc(-c3noc(C4CCN(C(=O)COc5ccccc5)CC4)n3)ccc12
system.tested: Ole1 (Saccharomyces cerevisiae)
OLE1 % Max Inhibition / %: 7.17
--
compound: Cn1c(=O)n(C)c2cc(-c3noc(C4CCN(C(=O)CNC(=O)c5ccncc5)CC4)n3)ccc21
system.tested: Ole1 (Saccharomyces cerevisiae)
OLE1 % Max Inhibition / %: 4.93
--
compound: COc1ccc(-c2csc(C3CCN(C(=O)CNC(=O)c4ccccc4)CC3)n2)cc1OC
system.tested: Ole1 (Saccharomyces cerevisiae)
OLE1 % Max Inhibition / %: 20.26
--
compound: CCOc1ccc(-c2noc(C3CCN(C(=O)[C@H]4CC[C@H](c5ccccc5)N4)CC3)n2)cc1OC
system.tested: Ole1 (Saccharomyces cerevisiae)
OLE1 % Max Inhibition / %: 111.86
--
compound: Cc1nn(C)c2cc(-c3noc(C4CCN(S(=O)(=O)C(C)C)CC4)n3)ccc12
system.tested: Ole1 (Saccharomyces cerevisiae)
OLE1 % Max Inhibition / %: 83.07
--
compound: COc1ccc(-c2noc(C3CCN(C(=O)/C=C/C(=O)c4ccccc4)CC3)n2)cc1OC
system.tested: Ole1 (Saccharomyces cerevisiae)
OLE1 % Max Inhibition / %: 1.55
--
compound: Cc1nn(C)c2cc(-c3nc(C4CCN(C(=O)CNC(=O)c5ccccc5)CC4)no3)ccc12
system.tested: Ole1 (Saccharomyces cerevisiae)
OLE1 % Max Inhibition / %: 7.5
--
compound: Cc1nn(C)c2cc(-c3noc(N4CCN(C(=O)CN5Cc6ccccc6C5=O)CC4)n3)ccc12
system.tested: Ole1 (Saccharomyces cerevisiae)
OLE1 % Max Inhibition / %: 3.50
--
compound: CCn1nc2cc(-c3noc(C4CCN(C(=O)CNC(=O)c5ccccc5)CC4)n3)ccc2c1C
system.tested: Ole1 (Saccharomyces cerevisiae)
OLE1 % Max Inhibition / %: 28.5
--
compound: O=C(NCC(=O)N1CCC(c2nc(-c3ccc4nonc4c3)no2)CC1)c1ccccc1
system.tested: Ole1 (Saccharomyces cerevisiae)
OLE1 % Max Inhibition / %: 71.84
--
compound: Cn1c(=O)n(C)c2cc(-c3noc(C4CCN(C(=O)CNC(=O)c5cccnc5)CC4)n3)ccc21
system.tested: Ole1 (Saccharomyces cerevisiae)
OLE1 % Max Inhibition / %: 18.46
--
compound: COc1ccc(CN2CC(C(=O)N3CCC(c4nc(-c5ccc6c(C)nn(C)c6c5)no4)CC3)CC2=O)c(OC)c1 (stereo not shown)
system.tested: Ole1 (Saccharomyces cerevisiae)
OLE1 % Max Inhibition / %: 4.55
--
compound: Cc1nn(C)c2cc(-c3noc(C4CCN(C(=O)C5CC(=O)N(c6ccccc6)C5)CC4)n3)ncc12 (stereo not shown)
system.tested: Ole1 (Saccharomyces cerevisiae)
OLE1 % Max Inhibition / %: 119.08
--
compound: Cc1nn(C)c2ccc(-c3noc(C4CCN(C(=O)N5CCCCC5)CC4)n3)cc12
system.tested: Ole1 (Saccharomyces cerevisiae)
OLE1 % Max Inhibition / %: 92.97
--
compound: CC(C)n1ncc2cc(-c3noc(C4CCN(C(=O)CNC(=O)c5ccccc5)CC4)n3)ccc21
system.tested: Ole1 (Saccharomyces cerevisiae)
OLE1 % Max Inhibition / %: 21.30
